Parameter IC50, tested on HDAC1 (Homo sapiens, UniProt Q13547), listed per item.
Sequence (Q13547 whole entry, species assumed): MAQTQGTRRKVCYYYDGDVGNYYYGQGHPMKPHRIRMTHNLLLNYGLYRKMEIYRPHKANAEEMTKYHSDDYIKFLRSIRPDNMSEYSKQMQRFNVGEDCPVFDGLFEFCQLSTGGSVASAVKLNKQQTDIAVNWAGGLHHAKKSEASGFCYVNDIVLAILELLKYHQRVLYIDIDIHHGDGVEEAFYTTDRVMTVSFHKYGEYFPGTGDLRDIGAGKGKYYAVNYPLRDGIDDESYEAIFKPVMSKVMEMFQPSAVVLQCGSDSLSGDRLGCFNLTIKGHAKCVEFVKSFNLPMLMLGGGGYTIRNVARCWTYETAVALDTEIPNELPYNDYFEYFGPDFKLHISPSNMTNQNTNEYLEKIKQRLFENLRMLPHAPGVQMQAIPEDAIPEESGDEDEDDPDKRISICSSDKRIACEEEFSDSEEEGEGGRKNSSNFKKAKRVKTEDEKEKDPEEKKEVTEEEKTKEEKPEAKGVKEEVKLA
measure.name: IC50 (µM)

{"compound.structure.string": "O=C(CS)NCCCCCn1ccc2cc(Cl)c(Cl)cc21", "assayed.target": "HDAC1 (Homo sapiens, UniProt Q13547)", "measure.name": "IC50", "units.label": "µM", "result.comparator": ">", "observed.measurement": 30}
{"compound.structure.string": "O=C(CS)NCCCCCC(=O)Nc1ccccc1", "assayed.target": "HDAC1 (Homo sapiens, UniProt Q13547)", "measure.name": "IC50", "units.label": "µM", "result.comparator": "=", "observed.measurement": 3.76}
